For each entry below, report its induction value.
target: Prostaglandin E2 receptor EP2 subtype (Homo sapiens); test: EP2 receptor modulators, cAMP readout, primary screen, cell-based, HTRF cAMP, PGE2 stimulation (AID 940); details: EP2-expressing cells, cAMP HTRF FRET, PGE2 co-stimulation; at 25 µM; hits give high values;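 further: rat C6 glioma line stably carrying human EP2 under a CMV promoter; the protocol text gives 20 µM as final concentration; 100% = response of wells given 1 µM PGE2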
About 2,200 (0.85%) of roughly 260,000 compounds were called active. What follows is part of a selection rich in actives, with near analogues and random picks from the rest.
Note: unit % is implicit; provide only the numeric part.

Return the recorded induction value; entry: COc1cc(OC)cc(OCC(O)Cn2c(C)nc3ccccc32)c1 (stereo not given)
-45

Return the recorded induction value; entry: "CC1(C)Cc2c(C#N)c(SCc3nc4ccccc4[nH]3)nc(N3CCOCC3)c2CO1"
-21.7

Return the recorded induction value; entry: C=CC1(C)CC(=O)C2(O)C(C)(O1)C(OC(C)=O)C(O)C1C(C)(C)CCC(O)C12C (stereo not given)
102

Return the recorded induction value; entry: Cc1ccc(NC(=S)N(Cc2ccco2)C(C)c2cccs2)cc1 (stereo not given)
44.2

Return the recorded induction value; entry: "Cc1ccc(CC(=O)NCc2ccco2)cc1"
8.03

Return the recorded induction value; entry: "COc1ccc(CSc2nc(N3CCOCC3)c3c(c2C#N)CC(C)(C)OC3)cc1"
37.4

Return the recorded induction value; entry: CCC(c1nnnn1C(C)(C)CC)N(Cc1cccs1)Cc1cc2ccc(C)c(C)c2[nH]c1=O (stereo not given)
48.5

Return the recorded induction value; entry: "COc1cccc(C2(NC(=O)c3cccc(N4CCCCS4(=O)=O)c3)CCCC2)c1"
-5.04

Return the recorded induction value; entry: "C=COCCNC(=O)C1CCN(c2nc3ccccc3n2CC)CC1"
-36.5

Return the recorded induction value; entry: "O=c1oc2ccccc2cc1-c1csc(Nc2cccc(O)c2)n1"
-123

Values from PubChem BioAssay AID940
